test system: SN12C; experiment: NCI tumour cell line growth inhibition, 48 h
Calls of active or inactive are those of the source. No stated cut-off is given here; in the data, active = GI50 up to about 1.1 µM and inactive = higher.
readout.type: GI50

Kindly note the recorded GI50 for O=C1CCC(NC(=O)Cc2ccc(O)cc2)C(=O)N1 (centres undefined) , which is > 2500 µM (inactive)

Kindly note the recorded GI50 for Cc1cc(C)c(-n2c(-c3ccccc3)cs/c2=N\N=C2C=C(C(C)(C)C)C(=O)C(C(C)(C)C)=C2)c(C)c1 , which is > 100 µM (inactive)

Kindly note the recorded GI50 for COc1c(-c2ccccc2)oc2c(CP(=O)(OC)OC)cccc2c1=O , which is > 100 µM (inactive)

Kindly note the recorded GI50 for COc1cc(C2SCC(=O)N2NC(=O)c2ccc(NC(C)=O)cc2OC)ccc1O (centres undefined) , which is 36.5 µM (inactive)

Kindly note the recorded GI50 for CC(=O)Oc1ccc(/C=C/C(=O)O[C@H]2CCCC[C@@H]2OC(=O)/C=C/c2ccc(OC(C)=O)c(OC(C)=O)c2)cc1OC(C)=O , which is 9.23 µM (inactive)

Kindly note the recorded GI50 for CCN1C2=NC(=O)N(C)C(=O)C2(Cl)C(C(SC)S(=O)(=O)c2ccc(C)cc2)c2ccccc21 (centres undefined) , which is 61 µM (inactive)

Kindly note the recorded GI50 for CC1(C)CC(=O)C(=CNc2nc(-c3ccc(Br)cc3)cs2)C(=O)C1 , which is 39.7 µM (inactive)

Kindly note the recorded GI50 for O=c1[nH]c2cc([N+](=O)[O-])c(Nc3c4ccccc4nc4ccccc34)c([N+](=O)[O-])c2[nH]1 , which is 2.17 µM (inactive)

Kindly note the recorded GI50 for Cc1cc(=O)oc2c1cc1ccc3cccc4ccc2c1c34 , which is > 100 µM (inactive)

====

test system: CCRF-CEM; assay: NCI tumour cell line growth inhibition, 48 h
Active and inactive are the calls of the source. No stated cut-off is given here; in the data, active = GI50 up to about 1.1 µM and inactive = higher.
Use one of these outcomes when replying: active, inactive

Prompt line: Which result was noted for this molecule in the test: COC(=O)/C(=N/NC(N)=O)C(C(=O)C(=O)Nc1ccc(C)cc1)c1nc2ccc(C(=O)c3ccccc3)cc2nc1O (centres undefined)
Response line: inactive

Prompt line: Which result was noted for this molecule in the test: O=C1c2scc(-c3ccc(Cl)cc3)c2-n2cccc21
Response line: inactive

Prompt line: Which result was noted for this molecule in the test: COC(=O)C1=C(O)C(C(=O)OC)[C@]2(O)[C@H](C(=O)OC)[C@H]1C[C@@H](c1ccc(OC)c(OC)c1)[C@H]2C(=O)OC (some centres undefined)
Response line: active

Prompt line: Which result was noted for this molecule in the test: CCc1n[nH]c(=O)n1/N=C/c1c(O)ccc2ccccc12
Response line: inactive

Prompt line: Which result was noted for this molecule in the test: COC(=O)c1ccccc1N(C(=O)c1ccccc1)c1ccccc1C
Response line: inactive

Prompt line: Which result was noted for this molecule in the test: COc1ccccc1N1C(=O)/C(=C\c2cc(OC)c(OC)c(OC)c2)SC1c1ccccc1 (centres undefined)
Response line: inactive

Prompt line: Which result was noted for this molecule in the test: CCC(=O)NC(Nc1cccc(F)c1)(C(F)(F)F)C(F)(F)F
Response line: inactive

Prompt line: Which result was noted for this molecule in the test: CCOC(=O)CC[C@H](NC(=O)c1ccc(CNc2nc3cc(C(F)(F)F)ccc3nc2C(=O)OCC)cc1)C(=O)OCC
Response line: inactive

Prompt line: Which result was noted for this molecule in the test: CC12CCC(CC1=O)C2(C)CCC(N)=O (centres undefined)
Response line: inactive

Prompt line: Which result was noted for this molecule in the test: Cc1ccc(OCC2OC(n3cnc4c(Cl)nc(N)nc43)CC2Oc2ccc(C)cc2)cc1 (centres undefined)
Response line: inactive

Prompt line: Which result was noted for this molecule in the test: COC(=O)[C@@H]1C=C[C@H](OC2OC(COC(C)=O)C(OC(C)=O)C(OC(C)=O)C2OC(C)=O)n2c(=O)n(-c3ccccc3)c(=O)n21 (some centres undefined)
Response line: inactive

Prompt line: Which result was noted for this molecule in the test: C[n+]1c2ccccc2n2c3ccccc3c(NCCCN3CCOCC3)c(C#N)c21
Response line: inactive

Prompt line: Which result was noted for this molecule in the test: CC(C)c1ccc(O)c(Cc2cc(C(C)C)cc(Cc3cc(C(C)C)ccc3O)c2O)c1
Response line: inactive

Prompt line: Which result was noted for this molecule in the test: N=C(N)N/N=C/c1c(-c2cc([N+](=O)[O-])c(Cl)cc2Cl)nc2n1CCS2
Response line: inactive

Prompt line: Which result was noted for this molecule in the test: NC(=O)CC1OC(=O)Cc2cc3c(c(O)c21)C(=O)c1c(O)cccc1C3=O (centres undefined)
Response line: inactive

Prompt line: Which result was noted for this molecule in the test: COC(=O)CC(C(C(=O)OC)C(=O)OC)N1C(=O)OCC1c1ccccc1 (centres undefined)
Response line: inactive

Prompt line: Which result was noted for this molecule in the test: CC(CSc1nc2c(c(=N)n1-c1ccccc1)c(=S)n(-c1ccccc1)c(=S)n2-c1ccccc1)CN(C)C (centres undefined)
Response line: active

Prompt line: Which result was noted for this molecule in the test: CC(CO)C1=CC(C#CCOCc2ccccc2)N(C(=O)Oc2ccccc2)c2ccccc21 (centres undefined)
Response line: inactive

Prompt line: Which result was noted for this molecule in the test: O=C(/C=C/c1ccc(Cl)c(Cl)c1)c1ccc2ccccc2c1
Response line: inactive

====

system: SN12C; test: NCI tumour cell line growth inhibition, 48 h
Activity calls are given as the source filed them. Rule as the data show it: active = GI50 up to about 1.1 µM and inactive = higher.
Task for the reader: assign each of the following compounds its reported GI50.

Kindly note the recorded GI50 for CCN(CC)CC1CCCCN1CC(=O)N1c2ccccc2NC(=O)c2ccccc21 (stereo not given) , which is > 100 µM (inactive)

Kindly note the recorded GI50 for COc1ccc(-c2nc(SCC(=O)N/N=C/c3ccc(N(C)C)cc3)[nH]c2-c2ccc(OC)cc2)cc1 , which is 82 µM (inactive)

Kindly note the recorded GI50 for CC1CC(N)=Nc2ccccc2N1Cc1ccccc1 (stereo not given) , which is 16.6 µM (inactive)

Kindly note the recorded GI50 for O=C(/C=C1\NC(=O)c2ccccc2N1)c1ccncc1 , which is > 100 µM (inactive)

Kindly note the recorded GI50 for O=C(CCCCCCCCC(=O)NN1C(=O)/C(=C\c2ccc(O)c(O)c2)SC1c1ccc(Cl)cc1)NN1C(=O)/C(=C\c2ccc(O)c(O)c2)SC1c1ccc(Cl)cc1 (stereo not given) , which is 41.7 µM (inactive)

Kindly note the recorded GI50 for CC1(C2(C)OC(=O)c3ccccc32)OC(=O)c2ccccc21 (stereo not given) , which is > 100 µM (inactive)

Kindly note the recorded GI50 for COc1ccccc1C(=O)c1c(NCc2ccccc2)c(=O)c1=O , which is > 100 µM (inactive)

Kindly note the recorded GI50 for COC(=O)NCCc1n[nH]c2c1C(=O)C=C(OC)C2=O , which is 20.3 µM (inactive)

Kindly note the recorded GI50 for Cc1cc(C)c(C(=O)C(C)C(c2ccccc2)c2ccc(Cl)cc2)c(C)c1 (stereo not given) , which is > 100 µM (inactive)

Kindly note the recorded GI50 for COc1cc(Cl)c(CC(=O)c2c[nH]c3ccccc23)cc1OC , which is 58.5 µM (inactive)

====

tested on: MDA-MB-231; assay: NCI tumour cell line growth inhibition, 48 h
Calls of active or inactive are those of the source. Cut-off read from the data, not from the text of the source: active = GI50 up to about 1.1 µM and inactive = higher.
readout.type: GI50

Kindly note the recorded GI50 for COc1ccc(/C=C2\CSC/C(=C\c3ccc(OC)c(OC)c3OC)C2=O)c(OC)c1OC , which is 66.4 µM (inactive)

Kindly note the recorded GI50 for CCOC(=O)C#Cc1ccc(C#CC(=O)OCC)cc1 , which is 5.11 µM (inactive)

Kindly note the recorded GI50 for NC(Cc1cc(Br)c(O)c(Br)c1)C(=O)O (stereo not given) , which is > 100 µM (inactive)

Kindly note the recorded GI50 for CC(CSc1nc2c(c(=N)n1-c1ccccc1)c(=S)n(-c1ccccc1)c(=S)n2-c1ccccc1)CN(C)C (stereo not given) , which is 1.87 µM (inactive)

Kindly note the recorded GI50 for COc1cc(C2C(Cl)C(=O)N2c2ccc(Br)cc2)cc(I)c1O (stereo not given) , which is 18.9 µM (inactive)

====

Task for the reader: assign each of the following compounds its reported GI50.
tested on: OVCAR-3; test: NCI tumour cell line growth inhibition, 48 h
Activity calls are given as the source filed them. Rule as the data show it: active = GI50 up to about 1.1 µM and inactive = higher.

Kindly note the recorded GI50 for COc1ccc2cc3c4cc5c(cc4cc[n+]3cc2c1OC)OCO5 , which is 3.87 µM (inactive)

Kindly note the recorded GI50 for CCOP(=O)(OCC)/C(=C/c1ccccc1)CC(C)=O , which is > 100 µM (inactive)

Kindly note the recorded GI50 for COC(=O)C(CCCCN)NC(=O)C(CCCCN)NC(=O)C(CCCCN)NC(C)=O.Cc1ccc(C(=O)Nc2ccc(S(=O)(=O)O)c3cc(S(=O)(=O)O)cc(S(=O)(=O)O)c23)cc1NC(=O)c1cccc(NC(=O)Nc2cccc(C(=O)Nc3cc(C(=O)Nc4ccc(S(=O)(=O)O)c5cc(S(=O)(=O)O)cc(S(=O)(=O)O)c45)ccc3C)c2)c1 , which is > 50 µM (inactive)

Kindly note the recorded GI50 for CCOC(=O)CC[C@H](NC(=O)c1ccc(CNc2nc3cc(C(F)(F)F)ccc3nc2C(=O)OCC)cc1)C(=O)OCC , which is > 38.8 µM (inactive)

Value source: ChEMBL document CHEMBL1201862
